- experiment: Inhibition of bacterial beta-lactamase TEM-1 using nitrocefin as substrate by spectrophotometric analysis
- Set-up: species or system Bacteria
pIC50: −log10 of the molar value.

smiles | pIC50
CC(=O)NNC(=O)[C@@H]1CC[C@@H]2CN1C(=O)N2OS(=O)(=O)[O-].[Na+] | 6.49 to 8.10

###

- System: Staphylococcus aureus
- experiment: Inhibition of biofilm formation in Staphylococcus aureus ATCC 25923 at 1.5 ug/ml after 24 hrs by MTT assay
- Format: functional
- experimentalSetup: ATCC 25923, 24 h
Reported inhibition at 1.5 µg/mL values for the following compounds.

smiles | inhibition at 1.5 µg/mL
O=C(c1cc(Cl)cc(Cl)c1O)c1[nH]c(Br)c(Br)c1Br | 67.9 to 86.7%
O=C(c1cc(Br)ccc1O)c1[nH]c(Br)c(Cl)c1Br | > 60%
O=C(c1cc(Br)cc(Br)c1O)c1[nH]c(Br)c(Br)c1Br | 68.5 to 100%
O=C(c1cc(Br)ccc1O)c1[nH]c(Cl)c(Br)c1Br | > 60%
O=C(c1cc(Br)ccc1O)c1[nH]c(Br)c(Br)c1Br | > 60%
O=C(c1cc(Cl)cc(Cl)c1O)c1[nH]c(Cl)c(Cl)c1Cl | > 60%
